# SYSTEM_UNDER_TEST: T1, AAV5 (adeno-associated virus 5)
# T1 construct: also called adeno-associated virus serotype 5
# ASSAY_INFO: SPR, AAV amine-coupled to CM5 chip;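 also: nanobodies flowed as analyte at seven concentrations spanning 1–100 nM over immobilized AAV (500–800 RU), kinetic constants derived by fitting the binding curves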
MEASURED_ENDPOINT: log10 of koff (log10 of the value in s⁻¹)
On a log10 scale: recorded koff, unit s⁻¹.

A4-094 (VHH) VHH: VQLQESGGGLVQPGGSLRLSCVASGSIFVINTMGWYRQAPGKQRELVATVTRDGGTNYADSVKGRFTISRDNAKNTVYLQMNSLRPEDTAVYYCHIDEIRESSWTTSNLWGQGTQVTVSS; -2.78

Request the reported log10 of koff associated with A4-067 (VHH) VHH: VQLQESGGGLVQTGGSLRLSCAASGRAFSLNTMGWYRQAPGKWRELVATVTRGGSTNYAGSVKGRFTISRDNTKNTVYLQMNNLRPEDTAVYYCHVDEVRESSWTTSNLWGQGTQVTVSS -4.70

Value lookup for log10 of koff; key = A4-100 (VHH) VHH: VQLQESGGGLVQPGGSLRLSCAASGSIFVINTMGWYRQAPGKQRELVASLTRGGSTNYADSVKGRFTISRDNDKNTIYLQMNSLRPEDTAVYYCHVDEVRESTWTTSNIWGQGTQVTVSS -2.91

log10 of koff for A4-093 (VHH) VHH: VQLQESGGGLVQTGGSLRLSCAASGSIFIINTMGWYRQRAGKQRELVATVTRGGSTNYADSVKGRFTISRDNAKNTVYLQMNTLRPEDTAVYYCHVDELRQSSWTTSNLWGQGTQVTVSS ? -2.94

Given the binder A4-060 (VHH) VHH: VQLQESGGGLVQPGGSLRLSCAASGSTFSLNTMGWYRQAPGKQREIVATVTRGGSTNYAESVKGRFTISRDNAKNTVYLQMNSLRPEDTAVYYCHVDEVRQSTWTTSNLWGQGTQVTVSS , what is its reported log10 of koff? -3.35

log10 of koff lookup needed for A4-090 (VHH) VHH: VQLQESGGGLVQPGGSLRLSCVASGSRFIINTMGWYRQAPGKQRELVATFTRGGNTNYAESVKGRFTISRDNGKSTVYLQMNSLRPEDTAVYYCHVDEVRESTWTTSNLWGQGTQVTVSS , thanks. -2.73
